- Tested on: MCF-7 breast cancer cell line
- Measurement Notes: MTT anti-proliferative assay, MCF-7
- Assay type: cell-based
- Experimental Conditions: Homo sapiens, MCF7, 48 h, mean ± S.E.M.
Endpoint: IC50 (µM)

                                   compound                 assayed_system  endpoint  comparison_operator  numeric_readout
0  C/C(=N\Nc1nc(-c2ccc(Cl)cc2)cs1)c1ccc(Br)cc1  MCF-7 breast cancer cell line      IC50                    =             31.2
1  CC(=O)Oc1ccc(C(OC(C)=O)N(/N=C(\C)c2ccc(Br)cc2)c2nc(-c3ccc(Cl)cc3)cs2)cc1 (centres unmarked)  MCF-7 breast cancer cell line      IC50                    >              100
2  C/C(=N\N(c1nc(-c2ccc(Cl)cc2)cs1)C(O)c1ccc(O)cc1)c1ccc(Br)cc1 (centres unmarked)  MCF-7 breast cancer cell line      IC50                    =             18.6
3             CC(=O)Nc1nc(-c2ccc(Cl)cc2)cs1  MCF-7 breast cancer cell line      IC50                    =             5.73
4  COc1cc(C(O)N(/N=C(\C)c2ccc(Br)cc2)c2nc(-c3ccc(Cl)cc3)cs2)ccc1O (centres unmarked)  MCF-7 breast cancer cell line      IC50                    =             32.5
5  COc1cc(C(OC(C)=O)N(/N=C(\C)c2ccc(Br)cc2)c2nc(-c3ccc(Cl)cc3)cs2)ccc1OC(C)=O (centres unmarked)  MCF-7 breast cancer cell line      IC50                    =             43.8
6  C/C(=N\Nc1nc(-c2ccc(Br)cc2)cs1)c1ccccc1O  MCF-7 breast cancer cell line      IC50                    =             13.7
7   Oc1ccc(/C=N/Nc2nc(-c3ccc(Cl)cc3)cs2)cc1  MCF-7 breast cancer cell line      IC50                    =             24.9
